Recorded values, source ChEMBL document CHEMBL1201862.

# Tested on: Malme-3M
# PROTOCOL_DESCRIPTION: NCI tumour cell line growth inhibition, 48 h
Calls of active or inactive are those of the source. Rule as the data show it: active = GI50 up to about 1.1 µM and inactive = higher.
QUANTITY_MEASURED: GI50

O=[N+]([O-])c1ccc(Cl)cc1-n1nc(-c2ccccc2)cc1-c1ccccc1 = > 100 µM (inactive)

Items follow; give GI50 for each.
1. [O-][n+]1nc(N2CCOCC2)nc2ccccc21
2. NCC1(N2CCOCC2)C2CCCC21CNc1ccccc1 (stereo unspecified)

1. > 100 µM (inactive)
2. > 100 µM (inactive)

====

# Test system: MDA-N
# PROTOCOL_DESCRIPTION: NCI tumour cell line growth inhibition, 48 h
Activity calls are given as the source filed them. Rule as the data show it: active = GI50 up to about 1.1 µM and inactive = higher.
QUANTITY_MEASURED: GI50

COc1cccc2cc(C(C)=O)c(=O)oc12 = > 100 µM (inactive)
O=[N+]([O-])/C(C(Cl)=C(Cl)Cl)=C(\SCc1ccccc1)N1CCCCC1 = 17.5 µM (inactive)
O=c1[nH]nc(Nc2ccccc2)c2nnn(Cc3ccccc3)c12 = > 100 µM (inactive)
O[C@@H]1C[C@H](Cl)c2c(Cl)sc(Cl)c21 = > 100 µM (inactive)
COc1ccc(C)cc1NC(=S)N/N=C/c1ccc(SC)cc1 = 36.3 µM (inactive)

Turning now to a further compound:
Sample Cc1cc2c(cc1Cl)SC(NNc1ccc([N+](=O)[O-])cc1)=NS2(=O)=O — what was its GI50?
> 10 µM (inactive)

====

# System: MCF7
# PROTOCOL_DESCRIPTION: NCI tumour cell line growth inhibition, 48 h
Calls of active or inactive are those of the source. Rule as the data show it: active = GI50 up to about 1.1 µM and inactive = higher.
Respond using exactly one of the listed classes: True (active), False (inactive)

Sample answers from the record:
Fc1cccc(Cl)c1C1SCc2nc3cc4ccccc4cc3n21 (stereo unspecified) = False
O=C(O)C1C(C(=O)O)C(C(=O)O)C1C(=O)O (stereo unspecified) = False
Cc1c2cccc-2c(OCCO)cc2c3ccccc3n(C)c12 = False

Which outcome was entered for the compound NCCCNOCCCN in this test?
False

Ok, now Nc1nc(=O)[nH][nH]1
False

Ok, now C1=CC2=CC=CC3c4nc5ccc6ccccc6c5nc4C(=C1)C23 (stereo unspecified)
False

Ok, now O=c1c2ccccc2n2nnc3ccc(NCCCNCCNCCCNc4ccc5nnn6c7ccccc7c(=O)c4c56)c1c32
True

Ok, now N=C(N)NS(=O)(=O)c1ccc(/N=N/c2c(O)c(C(=O)O)cc3ccccc23)cc1
False

====

# Tested on: LOX IMVI
# PROTOCOL_DESCRIPTION: NCI tumour cell line growth inhibition, 48 h
Structures can show the parent of a compound that is named as a salt. Activity calls are given as the source filed them. No stated cut-off is given here; in the data, active = GI50 up to about 1.1 µM and inactive = higher.
Consider the following compounds; for each one, report its GI50.

CC(C)(C)/C(O)=C\c1nc2ccc(C(F)(F)F)cc2[nH]c1=O = > 100 µM (inactive)
CCCCn1c(CSc2ccc(Cl)cc2)c(C(=O)OCC)c2cc(OC)c(Br)cc21 = > 100 µM (inactive)
O=C1CC(c2n[nH]c3ccccc23)C(=O)N1c1ccccc1 (centres undefined) = > 100 µM (inactive)
Cc1ccc(S(=O)(=O)NC(=O)NC(Cc2ccc(O)cc2)C(=O)O)cc1 (centres undefined) = > 100 µM (inactive)
COc1ccc2c(c1)CC1(O)COc3cc(OC)ccc3C1O2 (centres undefined) = > 100 µM (inactive)

Items follow; give GI50 for each.
1. CC1(C)COC(c2ccc(C(F)(F)F)cc2C(O)c2ccc3ccccc3c2)=N1 (centres undefined)
2. Cc1ccc2c(c1)S(=O)(=O)c1ccc3ccccc3c1N2
3. O=C(c1ccccc1)N1C(=O)N(c2ccccc2)C(=N/c2ccccc2)/C1=N\c1ccccc1
4. NCCCCNCCCN [SPERMIDINE TRIHYDROCHLORIDE]

1: > 10 µM (inactive); 2: > 100 µM (inactive); 3: 9.25 µM (inactive); 4: > 100 µM (inactive)
